Entry source: patent US20180030151A1

target: recombinant human TFPI (tissue factor pathway inhibitor) (human, UniProt P10646 29-304); test: cell-based or functional assay
result_type: % of Normalized, TF/FVIIa/FX complex assay (FX 5 nM), Ab 3.13 nM (%)
One number for each entry, in %.

Worked examples follow.
| binder | readout_number |
| --- | --- |
| clone 1023 (antibody, V domains shown, scFv on yeast at selection; human IgG4/kappa IgG as purified) VH: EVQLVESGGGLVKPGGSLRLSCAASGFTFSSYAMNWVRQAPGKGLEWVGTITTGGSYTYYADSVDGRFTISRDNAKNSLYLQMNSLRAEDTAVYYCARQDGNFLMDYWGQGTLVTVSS VL: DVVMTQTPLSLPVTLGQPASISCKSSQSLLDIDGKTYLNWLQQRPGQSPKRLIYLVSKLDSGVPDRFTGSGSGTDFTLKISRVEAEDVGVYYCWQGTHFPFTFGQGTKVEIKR | 5.9 |
| clone 8 (antibody, V domains shown) VH: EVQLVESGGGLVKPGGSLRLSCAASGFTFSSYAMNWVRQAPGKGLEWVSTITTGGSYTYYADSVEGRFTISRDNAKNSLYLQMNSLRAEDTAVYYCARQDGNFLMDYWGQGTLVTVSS VL: DVVMTQTPLSLPVTLGQPASISCKSSPSLLDVDGKTYLNWLQQRPGQSPKRLIYLVSKLDSGVPDRFTGSGSGTDFTLKISRVEAEDVGVYYCWQGTHFPFTFGQGTKVEIKR | 6.1 |
| clone 2 (antibody, V domains shown) VH: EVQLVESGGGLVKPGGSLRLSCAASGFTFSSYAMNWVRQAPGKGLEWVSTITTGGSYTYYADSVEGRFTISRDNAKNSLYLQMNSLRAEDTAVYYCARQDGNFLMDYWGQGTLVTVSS VL: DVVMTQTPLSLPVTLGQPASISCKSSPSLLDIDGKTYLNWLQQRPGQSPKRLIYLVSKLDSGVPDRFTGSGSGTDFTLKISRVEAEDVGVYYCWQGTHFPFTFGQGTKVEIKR | 5.6 |

So for clone 3 (antibody, V domains shown) VH: EVQLVESGGGLVKPGGSLRLSCAASGFTFSSYAMNWVRQAPGKGLEWVGTITTGGSHTYYADSVDGRFTISRDNAKNSLYLQMNSLRAEDTAVYYCARQDGNFLMDYWGQGTLVTVSS VL: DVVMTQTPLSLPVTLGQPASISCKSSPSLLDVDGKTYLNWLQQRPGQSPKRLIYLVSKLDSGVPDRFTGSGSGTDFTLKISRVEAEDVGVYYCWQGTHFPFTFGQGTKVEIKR , the logged % of Normalized, TF/FVIIa/FX complex assay (FX 5 nM), Ab 3.13 nM turned out to be 5.7
